For each entry below, report its log ε1 value.
Experiment: electronic properties, UV/Vis spectrophotometry of methanolic solutions
Assay type: physicochemical
Settings: methanolic solution c = 8.0 × 10^−5 M, λ1 = 208–210 nm
Just the number, please, no unit after it.

Reported log ε1 for CCCCCCCOc1ccccc1NC(=O)OC(CN(CCC)CCC)CN1CCCC1.Cl.Cl (stereo not drawn) : what is it? 4.43

Reported log ε1 for CCCCCCOc1ccccc1NC(=O)OC(CN(CCC)CCC)CN1CCCCCC1 (stereo not drawn) : what is it? 4.42

Reported log ε1 for CCCCOc1ccccc1NC(=O)OC(CN(CCC)CCC)CN1CCCC1 (stereo not drawn) : what is it? 4.51
